pEC50: recorded values
ASSAYED SYSTEM: UniProt:P42261
PROCEDURE SUMMARY: Agonist activity at recombinant GluA1 receptor flip isoform expressed in Xenopus oocytes
Assay type: functional, cell-based, Oocyte
Scale note: pEC50 = -log10(concentration in M).

Below are worked cases with known answers.
MOLECULE | pEC50
NC(Cc1onc(O)c1Cl)C(=O)O (racemic) | 5.33
NS(=O)(=O)c1cc2c(cc1Cl)NC(C1CC3C=CC1C3)NS2(=O)=O (centres undefined) [CYCLOTHIAZIDE] | 6.00
NC(Cc1ccc(=O)[nH][n+]1[O-])C(=O)O (racemic) | 6.59

[Q] Report pEC50 for N[C@@H](Cn1cc(F)c(=O)[nH]c1=O)C(=O)O please.
[A] 6.42

* * *

ASSAYED SYSTEM: Glutamate receptor 4 (Homo sapiens)
Sequence (P48058 whole entry): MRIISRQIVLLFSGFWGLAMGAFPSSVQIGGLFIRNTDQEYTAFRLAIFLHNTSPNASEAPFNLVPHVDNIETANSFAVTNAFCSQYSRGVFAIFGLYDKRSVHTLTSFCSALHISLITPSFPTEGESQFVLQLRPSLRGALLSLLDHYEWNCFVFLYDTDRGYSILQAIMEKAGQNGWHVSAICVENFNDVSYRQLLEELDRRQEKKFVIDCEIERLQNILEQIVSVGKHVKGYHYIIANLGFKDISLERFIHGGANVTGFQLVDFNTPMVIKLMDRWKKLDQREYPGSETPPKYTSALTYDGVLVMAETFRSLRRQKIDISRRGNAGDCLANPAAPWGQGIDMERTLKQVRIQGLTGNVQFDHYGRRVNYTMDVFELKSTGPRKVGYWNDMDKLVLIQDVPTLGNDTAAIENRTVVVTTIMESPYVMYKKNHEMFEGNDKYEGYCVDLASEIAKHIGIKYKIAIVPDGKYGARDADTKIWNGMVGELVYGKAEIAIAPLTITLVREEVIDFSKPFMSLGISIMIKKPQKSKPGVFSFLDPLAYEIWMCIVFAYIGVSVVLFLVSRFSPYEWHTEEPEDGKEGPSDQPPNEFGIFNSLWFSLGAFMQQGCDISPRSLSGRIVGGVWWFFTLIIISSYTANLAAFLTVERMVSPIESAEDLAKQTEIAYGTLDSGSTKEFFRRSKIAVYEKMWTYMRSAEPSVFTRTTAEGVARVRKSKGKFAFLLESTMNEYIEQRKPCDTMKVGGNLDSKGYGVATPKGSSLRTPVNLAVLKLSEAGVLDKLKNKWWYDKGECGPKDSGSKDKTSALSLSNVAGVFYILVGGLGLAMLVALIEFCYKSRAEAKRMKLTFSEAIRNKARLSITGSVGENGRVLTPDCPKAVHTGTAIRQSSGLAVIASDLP
PROCEDURE SUMMARY: Inhibition of GluA4 receptor expressed in Xenopus oocytes assessed as inhibition of […] uM kainate-induced current by patch clamp electrophysiological assay
ATTRIBUTE MEASURED: IC50 (nM)
Numbers only here, please. The scale is nM.

[Q] Report IC50 for N=C(N)NCCC[C@H](N)C(=O)NCCCNCCCNCCCCCNC(=O)[C@H](CC(N)=O)NC(=O)Cc1ccc(O)cc1O please.
[A] 430

* * *

ASSAYED SYSTEM: Glutamate receptor AMPA 2/3 (Homo sapiens, UniProt P42262+P42263)
Sequence (P42263 whole entry, one chain of several, canonical isoform): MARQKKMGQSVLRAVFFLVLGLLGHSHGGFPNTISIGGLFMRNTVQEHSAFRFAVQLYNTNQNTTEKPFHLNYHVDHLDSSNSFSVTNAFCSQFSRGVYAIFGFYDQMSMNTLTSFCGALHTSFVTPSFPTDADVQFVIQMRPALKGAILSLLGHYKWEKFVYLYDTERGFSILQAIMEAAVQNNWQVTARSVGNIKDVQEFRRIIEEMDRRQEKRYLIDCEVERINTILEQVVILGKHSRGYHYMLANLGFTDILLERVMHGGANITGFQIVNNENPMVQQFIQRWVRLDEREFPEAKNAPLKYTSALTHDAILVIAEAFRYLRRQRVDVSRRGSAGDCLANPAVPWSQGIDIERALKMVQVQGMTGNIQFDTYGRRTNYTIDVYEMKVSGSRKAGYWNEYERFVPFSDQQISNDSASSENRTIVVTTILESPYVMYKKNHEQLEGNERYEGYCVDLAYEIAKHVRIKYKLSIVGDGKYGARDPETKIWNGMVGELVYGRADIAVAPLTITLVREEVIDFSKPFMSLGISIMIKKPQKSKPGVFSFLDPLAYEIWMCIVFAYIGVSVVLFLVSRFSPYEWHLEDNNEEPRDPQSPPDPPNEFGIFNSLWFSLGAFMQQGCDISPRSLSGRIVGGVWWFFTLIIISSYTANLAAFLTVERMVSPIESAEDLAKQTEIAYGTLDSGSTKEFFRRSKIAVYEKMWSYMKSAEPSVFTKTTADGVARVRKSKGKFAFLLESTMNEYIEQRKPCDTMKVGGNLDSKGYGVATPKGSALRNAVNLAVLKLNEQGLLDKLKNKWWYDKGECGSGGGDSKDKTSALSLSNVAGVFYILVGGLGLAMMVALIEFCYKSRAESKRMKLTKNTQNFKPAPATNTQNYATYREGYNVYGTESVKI
PROCEDURE SUMMARY: Agonist activity at GluA2A3 receptor
Format: functional
ATTRIBUTE MEASURED: EC50 (µM)
Numbers only here, please. The scale is µM.

[Q] Report EC50 for NC(Cc1onc(O)c1Br)C(=O)O (racemic) please.
[A] 80

* * *

ASSAYED SYSTEM: Glutamate receptor 3 (Rattus norvegicus, UniProt P19492)
Sequence (P19492 whole entry, canonical isoform): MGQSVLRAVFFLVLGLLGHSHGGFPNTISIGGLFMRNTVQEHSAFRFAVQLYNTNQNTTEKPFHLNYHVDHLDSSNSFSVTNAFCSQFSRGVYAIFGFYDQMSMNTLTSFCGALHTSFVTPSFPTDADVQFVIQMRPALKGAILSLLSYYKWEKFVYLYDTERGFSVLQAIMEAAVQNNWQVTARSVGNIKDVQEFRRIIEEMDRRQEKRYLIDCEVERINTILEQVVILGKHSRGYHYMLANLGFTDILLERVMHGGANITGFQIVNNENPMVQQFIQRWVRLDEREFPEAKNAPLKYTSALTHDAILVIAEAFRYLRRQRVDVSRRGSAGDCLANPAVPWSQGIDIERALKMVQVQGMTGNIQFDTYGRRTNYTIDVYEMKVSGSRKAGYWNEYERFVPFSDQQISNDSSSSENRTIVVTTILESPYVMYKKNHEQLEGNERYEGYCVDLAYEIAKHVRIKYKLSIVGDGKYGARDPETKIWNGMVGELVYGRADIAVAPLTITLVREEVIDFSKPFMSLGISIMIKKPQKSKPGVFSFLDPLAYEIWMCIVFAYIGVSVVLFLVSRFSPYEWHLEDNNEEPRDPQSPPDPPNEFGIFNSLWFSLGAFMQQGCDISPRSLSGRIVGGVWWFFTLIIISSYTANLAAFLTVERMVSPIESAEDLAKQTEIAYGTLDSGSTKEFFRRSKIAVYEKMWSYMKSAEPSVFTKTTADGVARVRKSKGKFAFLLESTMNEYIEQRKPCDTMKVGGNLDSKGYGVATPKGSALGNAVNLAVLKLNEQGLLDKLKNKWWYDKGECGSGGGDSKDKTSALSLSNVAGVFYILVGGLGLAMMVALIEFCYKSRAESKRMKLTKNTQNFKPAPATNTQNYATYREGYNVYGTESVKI
PROCEDURE SUMMARY: Agonist activity at rat recombinant GluA3 receptor flop isoform expressed in Xenopus oocytes
Format: functional, cell-based, Oocyte
ATTRIBUTE MEASURED: EC50 (nM)
Numbers only here, please. The scale is nM.

[Q] Report EC50 for Cc1onc(C(=O)O)c1CC(N)C(=O)O (racemic) please.
[A] 100

* * *

ASSAYED SYSTEM: UniProt P42262
PROCEDURE SUMMARY: Activity at human recombinant GluA2 flip isoform expressed in HEK203 cells assessed as blocked of receptor desensitization
ATTRIBUTE MEASURED: pEC50
Scale note: pEC50 = -log10(concentration in M).

[Q] Report pEC50 for CC(CNS(=O)(=O)C(C)C)C1CCC(c2ccc(C#N)cc2)CC1 (stereo unspecified) please.
[A] 4.82

* * *

ASSAYED SYSTEM: Glutamate receptor 3 (Homo sapiens, UniProt P42263)
Sequence (P42263 whole entry, canonical isoform): as the sequence (P42263 whole entry, one chain of several, canonical isoform) above
PROCEDURE SUMMARY: Activity at human recombinant GluA3 receptor flip isoform expressed in HEK293 cells assessed as effect on glutamate-induced calcium flux by Fluo-4/AM staining-based fluorescence assay
Assay type: cell-based
EC50: recorded values
Numbers only here, please. The scale is µM.

MOLECULE | U | EC50
CC(CNS(=O)(=O)C(C)C)C1CCC(c2ccc(C#N)cc2)CC1 (configuration not stated) | µM | 1.66

For the next question, use this molecule.
[Q] Report EC50 for NS(=O)(=O)c1cc2c(cc1Cl)NC(C1CC3C=CC1C3)NS2(=O)=O (configuration not stated) [CYCLOTHIAZIDE] please.
[A] 13.7

* * *

ASSAYED SYSTEM: Glutamate receptor 3 (Homo sapiens, UniProt P42263)
PROCEDURE SUMMARY: Agonist activity at recombinant GluA3 receptor flop isoform expressed in Xenopus oocytes co-expressing gamma2-TARP
Format: functional, cell-based, Oocyte
ATTRIBUTE MEASURED: pEC50
Scale note: pEC50 = -log10(concentration in M).

[Q] Provide value of pEC50 for this record tested with Glutamate receptor 3 (Homo sapiens, UniProt P42263): C=C(C)[C@H]1CN[C@H](C(=O)O)[C@H]1CC(=O)O
[A] 4.57

* * *

PROCEDURE SUMMARY: Agonist activity at recombinant GluA4 receptor flop isoform expressed in Xenopus oocytes co-expressing gamma2-TARP
Format: functional, cell-based
CONDITION PARAMETERS: Oocyte
ATTRIBUTE MEASURED: EC50 (µM)
Numbers only here, please. The scale is µM.

CPD SMILES | U | QUANTITATIVE RESULT
C=C(C)[C@H]1CN[C@H](C(=O)O)[C@H]1CC(=O)O | µM | 29.1

[Q] Report EC50 for N[C@@H](CCC(=O)O)C(=O)O please.
[A] 2.75

* * *

ASSAYED SYSTEM: UniProt P42261
PROCEDURE SUMMARY: Activity at human recombinant GluA1 receptor flip isoform expressed in HEK293 cells assessed as effect on glutamate-induced calcium flux by Fluo-4/AM staining-based fluorescence assay
Type: cell-based
ATTRIBUTE MEASURED: pEC50
Scale note: pEC50 = -log10(concentration in M).

COMPOUND | pEC50
CC(CNS(=O)(=O)C(C)C)C1CCC(c2ccc(C#N)cc2)CC1 (configuration not stated) | 5.25

For the next question, use this compound.
[Q] Report pEC50 for NS(=O)(=O)c1cc2c(cc1Cl)NC(C1CC3C=CC1C3)NS2(=O)=O (configuration not stated) [CYCLOTHIAZIDE] please.
[A] 4.70

* * *

ASSAYED SYSTEM: Glutamate receptor 2 (Homo sapiens)
PROCEDURE SUMMARY: Activity at recombinant GluA2 receptor flip isoform expressed in Xenopus oocytes co-expressing gamma2-TARP assessed as effect on glutamate/trichloromethiazide-induced current
Format: cell-based, Oocyte
ATTRIBUTE MEASURED: pEC50
Scale note: pEC50 = -log10(concentration in M).

[Q] Report pEC50 for CNC(=O)N1N=C(c2ccc(N)cc2)c2cc3c(cc2CC1C)OCO3 (stereo unspecified) [GYKI-53655] please.
[A] 4.00

* * *

ASSAYED SYSTEM: Glutamate receptor AMPA 2/3 (Homo sapiens, UniProt P42262+P42263)
PROCEDURE SUMMARY: Agonist activity at recombinant GluA2A3 receptor flop isoform expressed in Xenopus oocytes
Format: functional, cell-based, Oocyte
ATTRIBUTE MEASURED: pEC50
Scale note: pEC50 = -log10(concentration in M).

[Q] Report pEC50 for NC(Cc1onc(O)c1Br)C(=O)O (racemic) please.
[A] 4.10

* * *

ASSAYED SYSTEM: Glutamate receptor AMPA 1/2 (Homo sapiens, UniProt P42261+P42262)
Sequence (P42262 whole entry, canonical isoform): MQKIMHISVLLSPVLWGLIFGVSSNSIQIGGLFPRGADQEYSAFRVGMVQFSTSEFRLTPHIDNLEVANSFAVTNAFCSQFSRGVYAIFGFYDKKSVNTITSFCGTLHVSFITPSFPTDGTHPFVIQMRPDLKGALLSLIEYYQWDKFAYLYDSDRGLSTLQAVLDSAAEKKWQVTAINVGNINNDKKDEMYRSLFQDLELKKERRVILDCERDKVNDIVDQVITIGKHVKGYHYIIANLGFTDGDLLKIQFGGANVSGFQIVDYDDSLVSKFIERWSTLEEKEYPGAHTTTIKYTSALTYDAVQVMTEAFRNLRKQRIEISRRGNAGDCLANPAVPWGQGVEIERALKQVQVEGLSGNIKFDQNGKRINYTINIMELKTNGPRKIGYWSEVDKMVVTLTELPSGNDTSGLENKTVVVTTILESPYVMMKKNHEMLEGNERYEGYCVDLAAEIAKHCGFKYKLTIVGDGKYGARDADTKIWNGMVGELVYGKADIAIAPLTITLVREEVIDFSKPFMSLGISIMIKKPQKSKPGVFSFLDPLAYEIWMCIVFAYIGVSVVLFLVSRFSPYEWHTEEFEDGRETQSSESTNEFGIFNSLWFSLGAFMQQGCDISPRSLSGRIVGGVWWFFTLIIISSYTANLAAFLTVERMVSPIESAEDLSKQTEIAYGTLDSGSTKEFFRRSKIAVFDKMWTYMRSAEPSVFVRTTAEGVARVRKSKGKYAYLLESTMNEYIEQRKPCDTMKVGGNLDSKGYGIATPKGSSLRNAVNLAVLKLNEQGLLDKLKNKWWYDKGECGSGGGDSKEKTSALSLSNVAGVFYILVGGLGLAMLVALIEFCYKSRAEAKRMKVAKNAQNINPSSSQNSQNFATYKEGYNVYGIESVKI
Sequence (P42261 whole entry, canonical isoform): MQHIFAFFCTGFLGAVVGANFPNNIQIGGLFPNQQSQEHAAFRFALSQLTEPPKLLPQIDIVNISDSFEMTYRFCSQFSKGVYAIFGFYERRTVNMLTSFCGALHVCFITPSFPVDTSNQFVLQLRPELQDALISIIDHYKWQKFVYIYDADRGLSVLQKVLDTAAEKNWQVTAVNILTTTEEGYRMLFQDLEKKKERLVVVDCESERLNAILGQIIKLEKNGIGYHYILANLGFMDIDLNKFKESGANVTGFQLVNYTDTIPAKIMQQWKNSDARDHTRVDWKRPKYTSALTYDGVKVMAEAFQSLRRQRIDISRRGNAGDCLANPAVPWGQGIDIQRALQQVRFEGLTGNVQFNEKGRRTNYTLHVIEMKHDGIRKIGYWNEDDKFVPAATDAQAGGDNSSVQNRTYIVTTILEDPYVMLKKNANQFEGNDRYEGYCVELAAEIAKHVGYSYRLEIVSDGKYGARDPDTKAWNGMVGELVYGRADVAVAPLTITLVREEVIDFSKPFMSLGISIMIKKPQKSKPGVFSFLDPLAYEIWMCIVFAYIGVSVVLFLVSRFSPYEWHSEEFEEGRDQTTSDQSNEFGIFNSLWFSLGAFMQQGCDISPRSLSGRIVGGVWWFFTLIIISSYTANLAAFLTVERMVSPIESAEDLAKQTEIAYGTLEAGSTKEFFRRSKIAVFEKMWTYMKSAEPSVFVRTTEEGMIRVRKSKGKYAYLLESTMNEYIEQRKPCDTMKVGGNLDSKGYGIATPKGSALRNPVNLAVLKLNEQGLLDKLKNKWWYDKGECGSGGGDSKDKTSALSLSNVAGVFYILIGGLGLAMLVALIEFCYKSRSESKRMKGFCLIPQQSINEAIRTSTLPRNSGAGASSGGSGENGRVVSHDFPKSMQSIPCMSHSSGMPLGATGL
PROCEDURE SUMMARY: Activity at recombinant GluA1A2 receptor flip isoform expressed in Xenopus oocytes assessed as effect on 300 uM glutamate-induced current
Assay type: cell-based, Oocyte
ATTRIBUTE MEASURED: EC50 (µM)
Numbers only here, please. The scale is µM.

[Q] Report EC50 for NS(=O)(=O)c1cc2c(cc1Cl)NC(C1CC3C=CC1C3)NS2(=O)=O (stereo unspecified) [CYCLOTHIAZIDE] please.
[A] 6.6

* * *

ASSAYED SYSTEM: Glutamate receptor 2 (Homo sapiens, UniProt P42262)
PROCEDURE SUMMARY: Activity at human recombinant GluA2 flop isoform expressed in HEK203 cells assessed as blocked of receptor desensitization
ATTRIBUTE MEASURED: EC50
A complete answer gives the number and then names the unit.

[Q] Report EC50 for CC(CNS(=O)(=O)C(C)C)C1CCC(c2ccc(C#N)cc2)CC1 (stereo unspecified) please.
[A] 1440 nM

* * *

ASSAYED SYSTEM: Glutamate receptor 2 (Homo sapiens, UniProt P42262)
PROCEDURE SUMMARY: Agonist activity at GluA2 receptor
Format: functional
ATTRIBUTE MEASURED: EC50 (nM)
Numbers only here, please. The scale is nM.

[Q] Report EC50 for NC(Cc1onc(O)c1Cl)C(=O)O (racemic) please.
[A] 1700

* * *

ASSAYED SYSTEM: Glutamate receptor AMPA 1/2 (Homo sapiens, UniProt P42261+P42262)
Assay type: cell-based, Oocyte
ATTRIBUTE MEASURED: IC50 (µM)
Numbers only here, please. The scale is µM.

[Q] Provide value of IC50 for this record tested with Glutamate receptor AMPA 1/2 (Homo sapiens, UniProt P42261+P42262): N=C(N)NCCC[C@H](N)C(=O)NCCCNCCCNCCCCCNC(=O)[C@H](CC(N)=O)NC(=O)Cc1ccc(O)cc1O
[A] 5.5

* * *

ASSAYED SYSTEM: UniProt P42261
PROCEDURE SUMMARY: Inhibition of recombinant GluA1 receptor flip isoform expressed in Xenopus oocytes assessed as inhibition of […] uM glutamate-induced current
Type: cell-based, Oocyte
ATTRIBUTE MEASURED: pKi
Scale note: pKi = -log10(concentration in M).

[Q] Report pKi for CCCC(=O)N[C@@H](Cc1ccc(O)cc1)C(=O)NCCCCCCCNCCCCN please.
[A] 6.77
